Overview of reported IC50 across a group of compounds:
# study.target: Ubiquitin-conjugating enzyme E2 N (Homo sapiens, UniProt P61088)
# Sequence (P61088 whole entry): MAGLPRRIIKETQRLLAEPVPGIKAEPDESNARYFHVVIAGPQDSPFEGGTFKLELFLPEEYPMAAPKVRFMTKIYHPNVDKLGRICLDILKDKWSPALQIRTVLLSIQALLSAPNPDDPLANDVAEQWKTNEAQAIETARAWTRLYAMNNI
metric.name: IC50 (nM)

{"molecular.string": "C#CCOCCOCCOCCNc1nc(N2CCN(C(=O)CCCCCCCCCCNC(=O)[C@H](CCCCN)n3cc(C)nn3)CC2)nc(N2CCN(C(=O)CCCCCCCCCCNC(=O)[C@@H]([C@H](C)CC)n3cc(CCCCCN)nn3)CC2)n1", "metric.name": "IC50", "readout.value": 2230}
{"molecular.string": "C#CCOCCOCCOCCNc1nc(N2CCN(C(=O)CCCCCCCCCCNC(=O)[C@H]([C@@H](C)CC)n3cc(CCCCN=C(N)N)nn3)CC2)nc(N2CCN(C(=O)CCCCCCCCCCNC(=O)[C@H](CCCCN)n3cc(C)nn3)CC2)n1", "metric.name": "IC50", "readout.value": 1680}

Sourced from BindingDB's records for doi:10.7270/Q2SB4462
